# Assay explanation: protein stability index of a GFP-peptide fusion (yeast GPS) (PSI 1-4); higher = more stable; sorted into four equal gates, so the index is relative within each strain
# Assay setup: doa10∆
Please provide measured protein stability index for the entries that follow.

QIEKKKICRGRMNTIIT [SIR4]    3.52

For each listed entry, give its protein stability index.
1. ITARSAFVEFGASVIAG [SWP82]
2. AITHMIDALGTEFSKND [SCL1]
3. FNGYNPEKKEMIQEVIV [FAS2]
4. CKNFEKTQLGSTMTEPV [GAL11]
5. NKDSIEECGRTIHRSFT [CSN12]
6. KLFNRIVERETNWIIYP [CSN12]
7. NKLFTEPIKLEPVKEYT [YMR129W/POM152]
8. ISMILRNISFSDNNSRI [SWI1]

Result:
1: 1.93; 2: 2.47; 3: 3.39; 4: 2.81; 5: 3.21; 6: 2.81; 7: 2.34; 8: 3.02

For each listed entry, give its protein stability index.
1. YYDRKEELKNMFLYILK [RRI2]
2. NNESSDDMDIDEVNDRS [PCI8]
3. FAGEAGDTVQFAEYIQA [PRE1]
4. NKTLTFETETEVTFKNA [FAS1]

Result:
1: 2.16; 2: 3.09; 3: 1.72; 4: 3.15

Problem: Returns the measured protein stability index for the input sequence. Input: LKKANIIYHTTFSWLNA [YLR018C/POM34]
Result: 2.46

Taken from the supplement of paper PMC9732359.
